- subject of test: T1, human GIP receptor (human, UniProt P48546 22-466)
- T1 sequence (looked up): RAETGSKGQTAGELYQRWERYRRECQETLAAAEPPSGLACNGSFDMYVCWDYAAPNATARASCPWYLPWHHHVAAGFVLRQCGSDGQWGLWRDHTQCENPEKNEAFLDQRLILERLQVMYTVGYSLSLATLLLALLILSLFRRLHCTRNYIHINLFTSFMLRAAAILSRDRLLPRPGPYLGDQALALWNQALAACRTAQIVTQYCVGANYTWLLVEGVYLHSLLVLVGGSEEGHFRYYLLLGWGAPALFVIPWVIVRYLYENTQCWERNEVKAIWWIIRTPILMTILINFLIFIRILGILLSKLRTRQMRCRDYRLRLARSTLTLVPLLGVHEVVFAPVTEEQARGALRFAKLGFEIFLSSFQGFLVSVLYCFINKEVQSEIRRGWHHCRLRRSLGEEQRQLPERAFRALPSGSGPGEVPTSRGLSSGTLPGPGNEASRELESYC
- test name: cell-based or functional assay
Numbered stars: 1 amine (or outer) side, 2 acyl side, 3 side chain; on linkers, the order of the positions; unused ones are H or OH. Square brackets hold non-standard residues; d marks the D form. Side chains are listed from the residue outwards. * marks the point of attachment. C20 diacid = O=C(O)CCCCCCCCCCCCCCCCCCC(=O)*; C18 diacid = O=C(O)CCCCCCCCCCCCCCCCC(=O)*; γGlu = O=C(O)[C@H](CCC(=O)[*:2])N[*:1]; Chem. 28 = not defined here; AEEA = NCCOCCOCC(=O)O; Aib = CC(C)(N)C(=O)O
quantity kind: hGIPR Potency, no HSA, EC50 [pM] (pM)
Supply the numeric figure in pM, leaving out any unit text.

Reference set, count: 5
| binder | unit symbol | hGIPR Potency, no HSA, EC50 [pM] |
| --- | --- | --- |
| Compound 46 (reading uncertain) peptide: H[Aib]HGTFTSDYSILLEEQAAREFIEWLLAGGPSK(Chem. 28)GAGQAPGQAPGASHLSTAALGRLSAELHRLATLPRTETGSGSP-NH2 | pM | 5.42 |
| Compound 50 (reading uncertain) peptide: Y[Aib]EGTFTSDYSILLEEQAAREFIEWLLAGGPSSGEASHLSTAQTQRLSAELHK(Chem. 28)LATLPRTETGSGSP-NH2 | pM | 2.36 |
| Compound 65 (peptide) peptide: H[Aib]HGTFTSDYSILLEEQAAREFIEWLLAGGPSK([AEEA-AEEA-γGlu-C18 diacid])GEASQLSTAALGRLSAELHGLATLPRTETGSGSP-NH2 | pM | 1.89 |
| Compound 24 (reading uncertain) peptide: Y[Aib]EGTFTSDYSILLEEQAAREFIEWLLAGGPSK(Chem. 28)GALAQTLFVNQASELSTAALGRLSAELHELATLPRTETGSGSP-NH2 | pM | 2.34 |
| Compound 113 (peptide) peptide: Y[Aib]EGTFTSDYSILLEEQAAREFIEWLLAGGPSSGAGQAPGQAPGASHLSTAQTARLSAELHK([AEEA-AEEA-γGlu-C18 diacid])LATLPRTETGSGSP-NH2 | pM | 2.02 |

// query State, in one line, measured hGIPR Potency, no HSA, EC50 [pM] of Compound 110 (not fully specified) peptide: Y[Aib]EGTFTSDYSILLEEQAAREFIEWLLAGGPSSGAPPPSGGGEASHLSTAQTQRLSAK([AEEA-AEEA-γGlu-C20 diacid])LHRLATLPRTETGSGSP-NH2
// result 8.01

// query State, in one line, measured hGIPR Potency, no HSA, EC50 [pM] of Compound 26 (reading uncertain) peptide: Y[Aib]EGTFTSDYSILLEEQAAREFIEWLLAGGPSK(Chem. 28)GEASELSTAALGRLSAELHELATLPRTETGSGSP-NH2
// result 1.75

// query State, in one line, measured hGIPR Potency, no HSA, EC50 [pM] of Compound 27 (reading uncertain) peptide: Y[Aib]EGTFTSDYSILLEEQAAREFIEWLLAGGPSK(Chem. 28)GEASELSTAQLGRLSAELHRLATLPRTETGSGSP-NH2
// result 2.11
